biological target: Cathepsin S (Homo sapiens)
Sequence (P25774 whole entry): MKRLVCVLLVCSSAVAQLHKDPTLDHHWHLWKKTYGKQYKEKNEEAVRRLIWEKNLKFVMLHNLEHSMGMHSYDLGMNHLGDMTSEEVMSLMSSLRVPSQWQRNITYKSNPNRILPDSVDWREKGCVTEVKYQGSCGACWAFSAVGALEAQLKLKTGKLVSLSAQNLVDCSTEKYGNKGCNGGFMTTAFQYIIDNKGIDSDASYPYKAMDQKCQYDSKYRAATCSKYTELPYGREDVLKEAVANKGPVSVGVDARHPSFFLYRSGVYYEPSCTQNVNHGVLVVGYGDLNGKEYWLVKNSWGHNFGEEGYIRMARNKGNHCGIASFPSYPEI
pIC50: −log10 of the molar value.
If the reported pIC50 equals or exceeds 5, assign Met. If not, assign Not met.

Some solved cases for reference:
COc1ccc(/C=C/C(=O)NC[C@H](Cc2ccccc2)NS(=O)(=O)c2ccc(C(F)(F)F)cc2)cc1OC :: Not met
COc1cccc(/C=C/C(=O)NC[C@H](Cc2ccccc2)NS(=O)(=O)c2ccc(C(F)(F)F)cc2)c1 :: Not met
COc1cccc(/C=C/C(=O)NC[C@@H](Cc2ccccc2)NS(=O)(=O)c2ccc(Br)cc2)c1 :: Not met
N#Cc1ccccc1N1CCN(C[C@H](O)COC[C@@H](Cc2ccccc2)NC(=O)c2ccncc2)CC1 :: Not met
N#Cc1ccccc1N1CCN(C[C@H](O)COC[C@@H](Cc2ccccc2)NS(=O)(=O)c2ccc(Br)cc2)CC1 :: Met
N#Cc1ccccc1N1CCN(C[C@H](O)COC[C@H](Cc2ccccc2)NS(=O)(=O)c2ccc(C(F)(F)F)cc2)CC1 :: Not met
N#Cc1ccccc1N1CCN(C[C@@H](O)COC[C@H](Cc2ccccc2)NS(=O)(=O)c2ccc(Br)cc2)CC1 :: Met
N#Cc1ccccc1N1CCN(C[C@@H](O)COC[C@H](Cc2ccccc2)NC(=O)c2ccncc2)CC1 :: Not met
COc1ccc(/C=C/C(=O)NC[C@@H](Cc2ccccc2)NS(=O)(=O)c2ccc(C(F)(F)F)cc2)cc1OC :: Not met
N#Cc1ccccc1N1CCN(C[C@@H](O)COC[C@@H](Cc2ccccc2)NS(=O)(=O)c2ccc(C(F)(F)F)cc2)CC1 :: Not met

pIC50 >= 5 for `N#Cc1ccccc1N1CCN(C[C@@H](O)COC[C@H](Cc2ccccc2)NS(=O)(=O)c2ccc(C(F)(F)F)cc2)CC1` ?
Not met

Textbook exercise: given the entry `N#Cc1ccccc1N1CCN(C[C@@H](O)COC[C@@H](Cc2ccccc2)NC(=O)C2CCN(C(=O)OCc3ccccc3)CC2)CC1` , state whether its pIC50 is greater than or equal to 5.
Not met

Item `COc1cccc(/C=C/C(=O)NC[C@@H](Cc2ccccc2)NS(=O)(=O)c2ccc(C(F)(F)F)cc2)c1` with pIC50 of 5 or above?
Not met

====

Entries annotated with measured IC50
target: Procathepsin L (Homo sapiens)

Take a look at these entries with their results.
N#Cc1ccccc1N1CCN(C[C@H](O)COC[C@H](Cc2ccccc2)NS(=O)(=O)c2ccc(Br)cc2)CC1 :: 8.53 µM
COc1cccc(/C=C/C(=O)NC[C@@H](Cc2ccccc2)NS(=O)(=O)c2ccc(Br)cc2)c1 :: 23.9 µM

Hi! What's the reported IC50 for `N#Cc1ccccc1N1CCN(C[C@@H](O)COC[C@@H](Cc2ccccc2)NC(=O)c2ccncc2)CC1` on Procathepsin L (Homo sapiens)?
29.8 µM

Requested read-out IC50, target or system Procathepsin L (Homo sapiens), entry `N#Cc1ccccc1N1CCN(C[C@@H](O)COC[C@H](Cc2ccccc2)NC(=O)C2CCN(C(=O)OCc3ccccc3)CC2)CC1`
19.5 µM

====

Parameter IC50, tested on Procathepsin L (Homo sapiens, UniProt P07711), listed per item.
Sequence (P07711 whole entry): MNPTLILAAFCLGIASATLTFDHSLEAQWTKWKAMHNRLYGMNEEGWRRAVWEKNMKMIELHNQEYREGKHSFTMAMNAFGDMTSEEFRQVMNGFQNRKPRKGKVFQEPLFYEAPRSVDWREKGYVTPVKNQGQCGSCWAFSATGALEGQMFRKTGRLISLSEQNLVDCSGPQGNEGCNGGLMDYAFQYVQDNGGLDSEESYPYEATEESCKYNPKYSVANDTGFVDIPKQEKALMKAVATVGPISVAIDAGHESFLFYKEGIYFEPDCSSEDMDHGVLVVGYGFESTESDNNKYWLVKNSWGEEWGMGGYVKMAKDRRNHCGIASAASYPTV
Reply with just the number (in µM).

Reference set, count: 5
O=C(OC[C@@H](Cc1ccccc1)NS(=O)(=O)c1ccc(Br)cc1)[C@@H](Cc1ccccc1)NS(=O)(=O)c1ccccc1 :: 6.03
N#Cc1ccccc1N1CCN(C[C@@H](O)COC[C@H](Cc2ccccc2)NC(=O)c2ccncc2)CC1 :: 18.6
N#Cc1ccccc1N1CCN(C[C@H](O)COC[C@@H](Cc2ccccc2)NC(=O)c2ccncc2)CC1 :: 46.2
N#Cc1ccccc1N1CCN(C[C@H](O)COC[C@H](Cc2ccccc2)NC(=O)c2ccncc2)CC1 :: 9.37
N#Cc1ccccc1N1CCN(C[C@H](O)COC[C@@H](Cc2ccccc2)NS(=O)(=O)c2ccc(C(F)(F)F)cc2)CC1 :: 40.7

Report IC50 for `N#Cc1ccccc1N1CCN(C[C@@H](O)COC[C@@H](Cc2ccccc2)NS(=O)(=O)c2ccc(C(F)(F)F)cc2)CC1` tested on Procathepsin L (Homo sapiens, UniProt P07711).
10.5

What IC50 appears in the records for this compound with Procathepsin L (Homo sapiens, UniProt P07711)? `N#Cc1ccccc1N1CCN(C[C@H](O)COC[C@@H](Cc2ccccc2)NS(=O)(=O)c2ccc(Br)cc2)CC1`
7.5

Tell me reported IC50 for `COc1cccc(/C=C/C(=O)NC[C@@H](Cc2ccccc2)NS(=O)(=O)c2ccc(C(F)(F)F)cc2)c1` , tested with Procathepsin L (Homo sapiens, UniProt P07711).
51.7

// fetch Procathepsin L (Homo sapiens, UniProt P07711) IC50 for `N#Cc1ccccc1N1CCN(C[C@H](O)COC[C@H](Cc2ccccc2)NC(=O)C2CCN(C(=O)OCc3ccccc3)CC2)CC1`
14.5

Reported IC50 for Procathepsin L (Homo sapiens, UniProt P07711), given `N#Cc1ccccc1N1CCN(C[C@@H](O)COC[C@@H](Cc2ccccc2)NS(=O)(=O)c2ccc(Br)cc2)CC1` ?
4.1

====

Reported pIC50, Procathepsin L (Homo sapiens, UniProt P07711).
The scale used: pIC50 is minus the common logarithm of the concentration in molar units.

In the examples that follow, each entry is paired with its recorded pIC50.
N#Cc1ccccc1N1CCN(C[C@@H](O)COC[C@H](Cc2ccccc2)NS(=O)(=O)c2ccc(Br)cc2)CC1 :: 5.26
COc1ccc(/C=C/C(=O)NC[C@@H](Cc2ccccc2)NS(=O)(=O)c2ccc(C(F)(F)F)cc2)cc1OC :: 4.91
N#Cc1ccccc1N1CCN(C[C@H](O)COC[C@H](Cc2ccccc2)NS(=O)(=O)c2ccc(C(F)(F)F)cc2)CC1 :: 4.39

Then there is this compound:
Hi! What's the reported pIC50 for `N#Cc1ccccc1N1CCN(C[C@@H](O)COC[C@H](Cc2ccccc2)NS(=O)(=O)c2ccc(C(F)(F)F)cc2)CC1` on Procathepsin L (Homo sapiens, UniProt P07711)?
4.34

====

Entries with reported IC50 on UniProt:P25774
Write the value in µM as a bare number.

N#Cc1ccccc1N1CCN(C[C@H](O)COC[C@H](Cc2ccccc2)NC(=O)C2CCN(C(=O)OCc3ccccc3)CC2)CC1 :: 11.1

Checklist item: IC50 tested on UniProt:P25774, entry `N#Cc1ccccc1N1CCN(C[C@H](O)COC[C@H](Cc2ccccc2)NS(=O)(=O)c2ccc(Br)cc2)CC1` , value?
7.72

For UniProt:P25774, provide IC50 of `O=C(OC[C@@H](Cc1ccccc1)NS(=O)(=O)c1ccc(Br)cc1)[C@@H](Cc1ccccc1)NS(=O)(=O)c1ccccc1` please.
5.02

Which measured IC50 belongs to `N#Cc1ccccc1N1CCN(C[C@@H](O)COC[C@@H](Cc2ccccc2)NS(=O)(=O)c2ccc(Br)cc2)CC1` , tested on UniProt:P25774?
1.79

Form: Entry = `N#Cc1ccccc1N1CCN(C[C@@H](O)COC[C@@H](Cc2ccccc2)NC(=O)c2ccncc2)CC1` | System = UniProt:P25774 | IC50 = ____
48.9

Under UniProt:P25774: IC50 value of `N#Cc1ccccc1N1CCN(C[C@H](O)COC[C@@H](Cc2ccccc2)NS(=O)(=O)c2ccc(C(F)(F)F)cc2)CC1` ?
40.4

Record lookup: for UniProt:P25774, what IC50 belongs to `N#Cc1ccccc1N1CCN(C[C@@H](O)COC[C@H](Cc2ccccc2)NC(=O)C2CCN(C(=O)OCc3ccccc3)CC2)CC1` ?
22.7

// lookup IC50 | system=UniProt:P25774 | key= `N#Cc1ccccc1N1CCN(C[C@H](O)COC[C@H](Cc2ccccc2)NC(=O)c2ccncc2)CC1`
16.1
